Hello, the source for this data is ChEMBL document CHEMBL6182848, in case you need it.

# experimental-details: Permeability coefficient of compound in PBS at pH 7.4 at 10 uM incubated for 16 hrs PAMPA-BBB assay
property-measured: Papp at 16 h, 10 µM (×10⁻⁶ cm/s)

- O=C(NCc1ccccc1OC(F)(F)F)Nc1ccc(-c2ccc(=O)[nH]n2)cc1: 3.83

====

# experimental-details: Half life in male CD-1 mouse at 10 mg/kg, po measured up to 24 hrs by LC-MS/MS analysis
# Format: ADME, organism-based
# condition-description: in vivo
property-measured: half-life (h)

- O=C(NCc1ccccc1OC(F)(F)F)Nc1ccc(-c2ccc(=O)[nH]n2)cc1: 2.43

====

# experimental-details: AUC (0 to infinity) in male CD-1 mouse at 2 mg/kg, iv measured up to 24 hrs by LC-MS/MS analysis
# Format: ADME, organism-based
# condition-description: in vivo
property-measured: AUC(0-inf)

• O=C(NCc1ccccc1OC(F)(F)F)Nc1ccc(-c2ccc(=O)[nH]n2)cc1 = 7630 ng·h/mL
